Measured solubility at 24 h values are reported for all entries that follow.
TEST SUMMARY: Solubility at pH 6.5 after 24 hrs by chemiluminescence assay
Type: physicochemical
TEST PARAMETERS: buffer

Take a look at these entries with their results.
| GIVEN SMILES | solubility at 24 h |
| --- | --- |
| NS(=O)(=O)c1cnc(Sc2ccc(F)c(F)c2)c(CO)c1 | > 353 µM |
| NCCCCNC(=O)c1cc(S(N)(=O)=O)cnc1Sc1c(F)c(F)cc(F)c1F | > 265 µM |
| COCCCNC(=O)c1cc(S(N)(=O)=O)cnc1Sc1ccccc1 | > 287 µM |

For the compound shown here, COc1ccc(CCCNC(=O)c2cc(S(N)(=O)=O)cnc2Sc2c(F)c(F)cc(F)c2F)cc1 , give the reported solubility at 24 h.
< 19 µM

Now try NS(=O)(=O)c1cnc(Sc2ccccc2)c(C(=O)NCCc2ccccc2)c1 .
< 22.2 µM

Now try COCCNC(=O)c1cc(S(N)(=O)=O)ccc1SCCc1ccccc1 .
> 304 µM
